These entries and their values trace back to the supplement of paper PMC9112550.

Tested on: Escherichia coli TOP10
Test Details: shrunken log2 fold change of peptide-encoding DNA abundance (4.5 h post-induction vs induction); higher = less antimicrobial activity (less host growth inhibition)
Measurement Conditions: time post-induction: 4.5 h; library: site-saturation at positions 5, 18, 19, 20
Binary classification by shrunken log2 fold change, with -0.04 as an inclusive lower bound for true; all other cases are false.

Query :: Does the sequence RRIRVRPPRLPRPRPRPNIMPRP have recorded shrunken log2 fold change that is -0.04 or more?
Result :: false

Query :: Does the sequence RRIRPRPPRLPRPRPRPPITPRP have recorded shrunken log2 fold change that is -0.04 or more?
Result :: false

Query :: Does the sequence RRIRRRPPRLPRPRPRPKDTPRP have recorded shrunken log2 fold change that is -0.04 or more?
Result :: true

Query :: Does the sequence RRIRTRPPRLPRPRPRPRWSPRP have recorded shrunken log2 fold change that is -0.04 or more?
Result :: true

Query :: Does the sequence RRIRMRPPRLPRPRPRPGSAPRP have recorded shrunken log2 fold change that is -0.04 or more?
Result :: true

Query :: Does the sequence RRIRMRPPRLPRPRPRPNGIPRP have recorded shrunken log2 fold change that is -0.04 or more?
Result :: true

Query :: Does the sequence RRIRVRPPRLPRPRPRPRWNPRP have recorded shrunken log2 fold change that is -0.04 or more?
Result :: true

Query :: Does the sequence RRIRNRPPRLPRPRPRPQFYPRP have recorded shrunken log2 fold change that is -0.04 or more?
Result :: false

Query :: Does the sequence RRIRERPPRLPRPRPRPNGEPRP have recorded shrunken log2 fold change that is -0.04 or more?
Result :: false

Query :: Does the sequence RRIRTRPPRLPRPRPRPDTAPRP have recorded shrunken log2 fold change that is -0.04 or more?
Result :: true

Query :: Does the sequence RRIRTRPPRLPRPRPRPGWDPRP have recorded shrunken log2 fold change that is -0.04 or more?
Result :: true

Query :: Does the sequence RRIRARPPRLPRPRPRPYFKPRP have recorded shrunken log2 fold change that is -0.04 or more?
Result :: false

Query :: Does the sequence RRIRTRPPRLPRPRPRPRCYPRP have recorded shrunken log2 fold change that is -0.04 or more?
Result :: false

Query :: Does the sequence RRIRGRPPRLPRPRPRPSVPPRP have recorded shrunken log2 fold change that is -0.04 or more?
Result :: true

Query :: Does the sequence RRIRQRPPRLPRPRPRPLIPPRP have recorded shrunken log2 fold change that is -0.04 or more?
Result :: true

Query :: Does the sequence RRIRHRPPRLPRPRPRPWMAPRP have recorded shrunken log2 fold change that is -0.04 or more?
Result :: false

Query :: Does the sequence RRIRHRPPRLPRPRPRPNATPRP have recorded shrunken log2 fold change that is -0.04 or more?
Result :: true

Query :: Does the sequence RRIRMRPPRLPRPRPRPWRVPRP have recorded shrunken log2 fold change that is -0.04 or more?
Result :: false

Query :: Does the sequence RRIRHRPPRLPRPRPRPFCMPRP have recorded shrunken log2 fold change that is -0.04 or more?
Result :: false

Query :: Does the sequence RRIRSRPPRLPRPRPRPVCTPRP have recorded shrunken log2 fold change that is -0.04 or more?
Result :: false

Query :: Does the sequence RRIRCRPPRLPRPRPRPQADPRP have recorded shrunken log2 fold change that is -0.04 or more?
Result :: true

Query :: Does the sequence RRIRHRPPRLPRPRPRPDKWPRP have recorded shrunken log2 fold change that is -0.04 or more?
Result :: false

Query :: Does the sequence RRIRGRPPRLPRPRPRPGYHPRP have recorded shrunken log2 fold change that is -0.04 or more?
Result :: true

Query :: Does the sequence RRIRLRPPRLPRPRPRPHFTPRP have recorded shrunken log2 fold change that is -0.04 or more?
Result :: false

Query :: Does the sequence RRIRKRPPRLPRPRPRPCIDPRP have recorded shrunken log2 fold change that is -0.04 or more?
Result :: false

Query :: Does the sequence RRIRDRPPRLPRPRPRPRNSPRP have recorded shrunken log2 fold change that is -0.04 or more?
Result :: false

Query :: Does the sequence RRIRDRPPRLPRPRPRPNRWPRP have recorded shrunken log2 fold change that is -0.04 or more?
Result :: true

Query :: Does the sequence RRIRYRPPRLPRPRPRPWYPPRP have recorded shrunken log2 fold change that is -0.04 or more?
Result :: false

Query :: Does the sequence RRIRCRPPRLPRPRPRPKCAPRP have recorded shrunken log2 fold change that is -0.04 or more?
Result :: true

Query :: Does the sequence RRIRVRPPRLPRPRPRPQWYPRP have recorded shrunken log2 fold change that is -0.04 or more?
Result :: false

Query :: Does the sequence RRIRCRPPRLPRPRPRPMLEPRP have recorded shrunken log2 fold change that is -0.04 or more?
Result :: true

Query :: Does the sequence RRIRTRPPRLPRPRPRPSWKPRP have recorded shrunken log2 fold change that is -0.04 or more?
Result :: false

====

System: Escherichia coli TOP10;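 also: peptides expressed intracellularly from a pBAD plasmid library in pooled LB shake-flask culture, induced with 0.3% L-arabinose, DNA abundance read by NGS, three biological replicates, DESeq2 with apeglm shrinkage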
Test Details: shrunken log2 fold change of peptide-encoding DNA abundance (4.5 h post-induction vs induction); higher = less antimicrobial activity (less host growth inhibition)
Measurement Conditions: time post-induction: 4.5 h; library: site-saturation at positions 5, 18, 19, 20
Measured Attribute: shrunken log2 fold change
Hey, just send me the number, nothing else.

Notebook: RRIRMRPPRLPRPRPRPQDFPRP , shrunken log2 fold change read as 0.0427

Notebook: RRIRLRPPRLPRPRPRPERIPRP , shrunken log2 fold change read as 0.0484

Notebook: RRIRQRPPRLPRPRPRPMTGPRP , shrunken log2 fold change read as 0.0323

Notebook: RRIRERPPRLPRPRPRPLVAPRP , shrunken log2 fold change read as 0.0966

Notebook: RRIRERPPRLPRPRPRPMIFPRP , shrunken log2 fold change read as -0.223

Notebook: RRIRCRPPRLPRPRPRPQDQPRP , shrunken log2 fold change read as -0.101

Notebook: RRIRWRPPRLPRPRPRPSVEPRP , shrunken log2 fold change read as 0.172

Notebook: RRIRSRPPRLPRPRPRPVKIPRP , shrunken log2 fold change read as -0.131

Notebook: RRIRNRPPRLPRPRPRPPMTPRP , shrunken log2 fold change read as 1.77

Notebook: RRIRKRPPRLPRPRPRPKDKPRP , shrunken log2 fold change read as 0.388

Notebook: RRIRLRPPRLPRPRPRPIHVPRP , shrunken log2 fold change read as -0.0124

Notebook: RRIRVRPPRLPRPRPRPWMEPRP , shrunken log2 fold change read as -0.124

Notebook: RRIRGRPPRLPRPRPRPYMYPRP , shrunken log2 fold change read as -0.251

Notebook: RRIRRRPPRLPRPRPRPFSIPRP , shrunken log2 fold change read as -0.254

Notebook: RRIRMRPPRLPRPRPRPFPFPRP , shrunken log2 fold change read as -0.356

Notebook: RRIRGRPPRLPRPRPRPIPCPRP , shrunken log2 fold change read as 0.184

Notebook: RRIRWRPPRLPRPRPRPDTDPRP , shrunken log2 fold change read as 0.225

Notebook: RRIRMRPPRLPRPRPRPEWMPRP , shrunken log2 fold change read as 0.156

Notebook: RRIRCRPPRLPRPRPRPHGKPRP , shrunken log2 fold change read as -0.15

Notebook: RRIRERPPRLPRPRPRPHHYPRP , shrunken log2 fold change read as 0.125

Notebook: RRIRTRPPRLPRPRPRPLSTPRP , shrunken log2 fold change read as -0.386

Notebook: RRIRWRPPRLPRPRPRPICYPRP , shrunken log2 fold change read as -0.214

Notebook: RRIRWRPPRLPRPRPRPDLSPRP , shrunken log2 fold change read as 0.000407

Notebook: RRIRDRPPRLPRPRPRPCLCPRP , shrunken log2 fold change read as 0.0206

Notebook: RRIRWRPPRLPRPRPRPFNYPRP , shrunken log2 fold change read as -0.533

Notebook: RRIRMRPPRLPRPRPRPTLPPRP , shrunken log2 fold change read as 0.248

Notebook: RRIRMRPPRLPRPRPRPGKCPRP , shrunken log2 fold change read as -0.0233

Notebook: RRIRNRPPRLPRPRPRPAVSPRP , shrunken log2 fold change read as -0.203

Notebook: RRIRRRPPRLPRPRPRPELHPRP , shrunken log2 fold change read as 0.793

Notebook: RRIRPRPPRLPRPRPRPMAPPRP , shrunken log2 fold change read as -0.0483

Notebook: RRIRYRPPRLPRPRPRPGRPPRP , shrunken log2 fold change read as 0.0326

Notebook: RRIRKRPPRLPRPRPRPNVAPRP , shrunken log2 fold change read as 0.387

Notebook: RRIRCRPPRLPRPRPRPWFTPRP , shrunken log2 fold change read as -0.879

Notebook: RRIRKRPPRLPRPRPRPDWHPRP , shrunken log2 fold change read as 0.0739

Notebook: RRIRTRPPRLPRPRPRPNKSPRP , shrunken log2 fold change read as -0.315

Notebook: RRIRPRPPRLPRPRPRPTESPRP , shrunken log2 fold change read as -0.041

Notebook: RRIRTRPPRLPRPRPRPWCDPRP , shrunken log2 fold change read as -0.596

Notebook: RRIRQRPPRLPRPRPRPILVPRP , shrunken log2 fold change read as -0.0138

Notebook: RRIRLRPPRLPRPRPRPNFIPRP , shrunken log2 fold change read as -0.228

Notebook: RRIRPRPPRLPRPRPRPCDGPRP , shrunken log2 fold change read as 0.0661

Notebook: RRIRCRPPRLPRPRPRPQRHPRP , shrunken log2 fold change read as -0.173

Notebook: RRIRIRPPRLPRPRPRPMIEPRP , shrunken log2 fold change read as -0.0216

Notebook: RRIRTRPPRLPRPRPRPCADPRP , shrunken log2 fold change read as -0.0062

Notebook: RRIRDRPPRLPRPRPRPTLTPRP , shrunken log2 fold change read as 0.717

Notebook: RRIRDRPPRLPRPRPRPFKKPRP , shrunken log2 fold change read as -0.145

Notebook: RRIRDRPPRLPRPRPRPDCMPRP , shrunken log2 fold change read as 0.781

Notebook: RRIRLRPPRLPRPRPRPMEAPRP , shrunken log2 fold change read as -0.00122

Notebook: RRIRRRPPRLPRPRPRPQHKPRP , shrunken log2 fold change read as 0.0372

Notebook: RRIRARPPRLPRPRPRPCFVPRP , shrunken log2 fold change read as -0.0979

Notebook: RRIRIRPPRLPRPRPRPGPWPRP , shrunken log2 fold change read as 0.0988

Notebook: RRIRQRPPRLPRPRPRPAALPRP , shrunken log2 fold change read as 0.247

Notebook: RRIRKRPPRLPRPRPRPDGIPRP , shrunken log2 fold change read as 0.00242

Notebook: RRIRMRPPRLPRPRPRPSFHPRP , shrunken log2 fold change read as -0.432

Notebook: RRIRIRPPRLPRPRPRPTQHPRP , shrunken log2 fold change read as 0.0549

Notebook: RRIRLRPPRLPRPRPRPYSSPRP , shrunken log2 fold change read as -0.203

Notebook: RRIRIRPPRLPRPRPRPPDNPRP , shrunken log2 fold change read as -0.368

Notebook: RRIRRRPPRLPRPRPRPMYVPRP , shrunken log2 fold change read as -0.203

Notebook: RRIRNRPPRLPRPRPRPGINPRP , shrunken log2 fold change read as -0.253

Notebook: RRIRCRPPRLPRPRPRPGCFPRP , shrunken log2 fold change read as 0.0804

Notebook: RRIRGRPPRLPRPRPRPYGEPRP , shrunken log2 fold change read as 0.398

Notebook: RRIRMRPPRLPRPRPRPQKQPRP , shrunken log2 fold change read as 0.0157

Notebook: RRIRNRPPRLPRPRPRPNNKPRP , shrunken log2 fold change read as -0.63

Notebook: RRIRFRPPRLPRPRPRPQNGPRP , shrunken log2 fold change read as -0.0443
